System: CHD4 (PPCC)
Test: Histone peptide microarray
Format: binding, human
Conditions: CHD4 (PPCC), GST-tagged; arrays performed twice, n of 4
Where no end group is shown, it is not given here. [ ]: non-standard residue; d: D form. Arg(Me2a) = CN(C)C(=N)NCCC[C@H](N)C(=O)O; pS = N[C@@H](COP(=O)(O)O)C(=O)O
Label rule met when Array Heatmap value (peptide array binding signal) >= 0.6; otherwise rule not met.

# substance, cat
data = [
    ("H2AS1p + K5ac: H2A 1-17 ([pS]GRGK(Ac)QGGKARAKAKTR; UniProt P0C0S8 2-18, looked up, fragment)", "rule not met"),
    ("H2AX (S139p): H2AX 132-142 (GKKATQA[pS]QEY; UniProt P16104 133-143, looked up, fragment)", "rule not met"),
    ("H2A.Z (1-19): H2AZ 1-19 (AGGKAGKDSGKAKTKAVSR; UniProt P0C0S5 2-20, looked up, fragment)", "rule met"),
    ("H2AX (132-142): H2AX 132-142 (GKKATQASQEY; UniProt P16104 133-143, looked up, fragment)", "rule not met"),
    ("H2AR3me2a + K5ac: H2A 1-17 (SG[Arg(Me2a)]GK(Ac)QGGKARAKAKTR; UniProt P0C0S8 2-18, looked up, fragment)", "rule not met"),
]

I'd appreciate it if you could say whether H2A.Z (1-19) (N-ac): H2AZ 1-19 (Ac-AGGKAGKDSGKAKTKAVSR; UniProt P0C0S5 2-20, looked up, fragment) has Array Heatmap value (peptide array binding signal) at least equal to 0.6.
rule not met

I'd appreciate it if you could say whether H2A.Z K4ac + K8ac + K12ac (1-19) (N-ac): H2AZ 1-19 (Ac-AGGKAGKDSGKAKTKAVSR; not fully specified (residue 4); UniProt P0C0S5 2-20, looked up, fragment) has Array Heatmap value (peptide array binding signal) at least equal to 0.6.
rule met

---

Test system: KDM4C (TTP)
Test: Histone peptide microarray
Format: binding, human
Conditions: KDM4C (TTP), GST-tagged; arrays performed twice, n of 4
Where no end group is shown, it is not given here. [ ]: non-standard residue; d: D form. Arg(Me2a) = CN(C)C(=N)NCCC[C@H](N)C(=O)O; pS = N[C@@H](COP(=O)(O)O)C(=O)O
Below, each entry is listed alongside its reported Array Heatmap value (peptide array binding signal).
The answer should be a number; do not append a unit.

Example cases with answers are listed next.
# substance, measured-target, observed
data = [
    ("H2AX (S139p): H2AX 132-142 (GKKATQA[pS]QEY; UniProt P16104 133-143, looked up, fragment)", "KDM4C (TTP)", 0.5256),
    ("H2AR3me2a + K5ac: H2A 1-17 (SG[Arg(Me2a)]GK(Ac)QGGKARAKAKTR; UniProt P0C0S8 2-18, looked up, fragment)", "KDM4C (TTP)", 0.4418),
    ("Myc-Tag: 1-10 (ILKKATAYIL; Myc epitope tag; UniProt P01106 410-419, looked up, fragment)", "KDM4C (TTP)", 0.4677),
    ("H2A.Z K4ac + K8ac + K12ac (1-19) (N-ac): H2AZ 1-19 (Ac-AGGKAGKDSGKAKTKAVSR; not fully specified (residue 4); UniProt P0C0S5 2-20, looked up, fragment)", "KDM4C (TTP)", 0.565),
    ("H4K12ac + KQ5,8,16,20: H4 1-23 (SGRGQGGQGLGK(Ac)GGAQRHRQVLR; UniProt P62805 2-24, looked up, variant K5Q K8Q K16Q K20Q)", "KDM4C (TTP)", 0.445),
    ("H2AX (132-142): H2AX 132-142 (GKKATQASQEY; UniProt P16104 133-143, looked up, fragment)", "KDM4C (TTP)", 0.4463),
]

The reported Array Heatmap value (peptide array binding signal) of the substance H2AS1p + K5ac: H2A 1-17 ([pS]GRGK(Ac)QGGKARAKAKTR; UniProt P0C0S8 2-18, looked up, fragment) was 0.3213

The reported Array Heatmap value (peptide array binding signal) of the substance H2A.Z (1-19) (N-ac): H2AZ 1-19 (Ac-AGGKAGKDSGKAKTKAVSR; UniProt P0C0S5 2-20, looked up, fragment) was 0.4403

The reported Array Heatmap value (peptide array binding signal) of the substance H2A.Z (1-19): H2AZ 1-19 (AGGKAGKDSGKAKTKAVSR; UniProt P0C0S5 2-20, looked up, fragment) was 0.563

The reported Array Heatmap value (peptide array binding signal) of the substance H2AS1p + R3me2a + K5ac: H2A 1-17 ([pS]G[Arg(Me2a)]GK(Ac)QGGKARAKAKTR; UniProt P0C0S8 2-18, looked up, fragment) was 0.5547
